Test: Luminescence activity of KAZ mutants (pCold II, E. coli) in supernatant and precipitate of crude enzyme solution
Format: biochemical
Conditions: Table 3; pCold II, E. coli BL21; 5 μL precipitate; 0.5 μg coelenterazine; 60 seconds
quantity: Relative Luminescence Activity (Imax) Precipitate

molecule: KAZ-A4E: KAZ with single amino acid substitution A4E (protein) FTLEDFVGDWQQTAGYNQDQVLEQGGLSSLFQALGVSVTPIQKVVLSGENGLKADIHVIIPYEGLSGFQMGLIEMIFKVVYPVDDHHFKIILHYGTLVIDGVTPNMIDYFGRPYPGIAVFDGKQITVTGTLWNGNKIYDERLINPDGSLLFRVTINGVTGWRLCENILA
recorded-value: 0.2

molecule: KAZ-Q124K: KAZ with single amino acid substitution Q124K (protein) FTLADFVGDWQQTAGYNQDQVLEQGGLSSLFQALGVSVTPIQKVVLSGENGLKADIHVIIPYEGLSGFQMGLIEMIFKVVYPVDDHHFKIILHYGTLVIDGVTPNMIDYFGRPYPGIAVFDGKKITVTGTLWNGNKIYDERLINPDGSLLFRVTINGVTGWRLCENILA
recorded-value: 0.8

molecule: KAZ-P115E: KAZ with single amino acid substitution P115E (protein) FTLADFVGDWQQTAGYNQDQVLEQGGLSSLFQALGVSVTPIQKVVLSGENGLKADIHVIIPYEGLSGFQMGLIEMIFKVVYPVDDHHFKIILHYGTLVIDGVTPNMIDYFGRPYEGIAVFDGKQITVTGTLWNGNKIYDERLINPDGSLLFRVTINGVTGWRLCENILA
recorded-value: 1.1

molecule: KAZ-L27V: KAZ with single amino acid substitution L27V (protein) FTLADFVGDWQQTAGYNQDQVLEQGGVSSLFQALGVSVTPIQKVVLSGENGLKADIHVIIPYEGLSGFQMGLIEMIFKVVYPVDDHHFKIILHYGTLVIDGVTPNMIDYFGRPYPGIAVFDGKQITVTGTLWNGNKIYDERLINPDGSLLFRVTINGVTGWRLCENILA
recorded-value: 0.1

molecule: KAZ-A33N: KAZ with single amino acid substitution A33N (protein) FTLADFVGDWQQTAGYNQDQVLEQGGLSSLFQNLGVSVTPIQKVVLSGENGLKADIHVIIPYEGLSGFQMGLIEMIFKVVYPVDDHHFKIILHYGTLVIDGVTPNMIDYFGRPYPGIAVFDGKQITVTGTLWNGNKIYDERLINPDGSLLFRVTINGVTGWRLCENILA
recorded-value: 0.4
